Provide the recorded PBM binding z-score for the entries that follow.
Tested on: PPARa:RXRa (NR concentration 270 nM, RXRa partner concentration 90 nM)
Assay: PBM binding z-score (relative to random genomic background probes); higher = stronger binding; sequences stand for … in GC…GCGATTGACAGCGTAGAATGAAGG
Keep it simple and answer with nothing but the number.

Problem: Give measured PBM binding z-score for TCGAGTAGGTTAAGGGGGCATTCAGGGATGAAGA (PPARa:RXRa (NR concentration 270 nM, RXRa partner concentration 90 nM)).
Result: 3.99

Problem: Give measured PBM binding z-score for CGTCCAAGGTCAACAGGTCAGTGAAAGCGACGTG (PPARa:RXRa (NR concentration 270 nM, RXRa partner concentration 90 nM)).
Result: 5.84

Problem: Give measured PBM binding z-score for CCTACTGGGCCAATAAGGTCATTGATGCCGATAA (PPARa:RXRa (NR concentration 270 nM, RXRa partner concentration 90 nM)).
Result: 4.04

Problem: Give measured PBM binding z-score for CCTACTGGGCCAAAGGTCAGTGATTCCAATGCTC (PPARa:RXRa (NR concentration 270 nM, RXRa partner concentration 90 nM)).
Result: 6.01

Problem: Give measured PBM binding z-score for TTACCAAGGTGAAGGTCGTGGATCCCTCTGTAGA (PPARa:RXRa (NR concentration 270 nM, RXRa partner concentration 90 nM)).
Result: 3.03

Problem: Give measured PBM binding z-score for CCGAGTAGGTTACGAAGGGGCATTCAGTGCGAAT (PPARa:RXRa (NR concentration 270 nM, RXRa partner concentration 90 nM)).
Result: 1.83

Problem: Give measured PBM binding z-score for ACTCGGAGGACAAAGGTCAGAACTACGCCAGTGA (PPARa:RXRa (NR concentration 270 nM, RXRa partner concentration 90 nM)).
Result: 4.61

Problem: Give measured PBM binding z-score for TATACTGGGTCAAAGGCCAGAGTACGAATGTCGA (PPARa:RXRa (NR concentration 270 nM, RXRa partner concentration 90 nM)).
Result: 5.52

Problem: Give measured PBM binding z-score for CTATGTAGGTTAAGGGGGTCATTCAGTTTGAAAG (PPARa:RXRa (NR concentration 270 nM, RXRa partner concentration 90 nM)).
Result: 6.31

Problem: Give measured PBM binding z-score for ATCGAAAGGTCGTGAGGTGAGTTTACAGAAAGGC (PPARa:RXRa (NR concentration 270 nM, RXRa partner concentration 90 nM)).
Result: 5.21

Problem: Give measured PBM binding z-score for CCTTACGGGTCACGGGGTTATAGCACGACGAGCG (PPARa:RXRa (NR concentration 270 nM, RXRa partner concentration 90 nM)).
Result: 6.37

Problem: Give measured PBM binding z-score for CGACCTAGGTCAAAGGACAGTGAAAGGCGACGTA (PPARa:RXRa (NR concentration 270 nM, RXRa partner concentration 90 nM)).
Result: 4.33

Problem: Give measured PBM binding z-score for CGAACTAGGTCGAAGGACAGTGAAAGGCGACGTA (PPARa:RXRa (NR concentration 270 nM, RXRa partner concentration 90 nM)).
Result: 2.52

Problem: Give measured PBM binding z-score for ACTAGAAGGCCAAGGGTCACTCAAGATTAGTCCG (PPARa:RXRa (NR concentration 270 nM, RXRa partner concentration 90 nM)).
Result: 4.51

Problem: Give measured PBM binding z-score for CGAACTAGGTCAAATGACAGTGAAAGGCGACGTA (PPARa:RXRa (NR concentration 270 nM, RXRa partner concentration 90 nM)).
Result: 5.2

Problem: Give measured PBM binding z-score for GCATATAGGTAATTCAAGGTGAAAGTCCGATTGT (PPARa:RXRa (NR concentration 270 nM, RXRa partner concentration 90 nM)).
Result: 1.9

Problem: Give measured PBM binding z-score for CCTAGTGGGCCAAAGGTCATTGATTCCAATGCTC (PPARa:RXRa (NR concentration 270 nM, RXRa partner concentration 90 nM)).
Result: 6.76

Problem: Give measured PBM binding z-score for CCGAGTAGGTTGCGAGGGGGCATTCAGTGCGAAT (PPARa:RXRa (NR concentration 270 nM, RXRa partner concentration 90 nM)).
Result: 2.73

Problem: Give measured PBM binding z-score for CGAACTAAGTCAAAGGACAGTGAAAGGCGACGTA (PPARa:RXRa (NR concentration 270 nM, RXRa partner concentration 90 nM)).
Result: 1.52

Problem: Give measured PBM binding z-score for ATATGTAGGTCAGGGTCATTCAGAAAGTAGGGAA (PPARa:RXRa (NR concentration 270 nM, RXRa partner concentration 90 nM)).
Result: 6.06

Problem: Give measured PBM binding z-score for CCGAGTAGGTTACGAGGGGGCATCCAGTGCGAAT (PPARa:RXRa (NR concentration 270 nM, RXRa partner concentration 90 nM)).
Result: 3.24

Problem: Give measured PBM binding z-score for CTATGTAGGTTAAGGGGGTCATTCCGTTTGAAAG (PPARa:RXRa (NR concentration 270 nM, RXRa partner concentration 90 nM)).
Result: 6.1

Problem: Give measured PBM binding z-score for TCGAGTAGGTTACGGGGGAATTCAGGGATGAAGA (PPARa:RXRa (NR concentration 270 nM, RXRa partner concentration 90 nM)).
Result: 2.8

Problem: Give measured PBM binding z-score for ATATGTAGGTTAGGGTCACTCAGAAAGTAGGGAA (PPARa:RXRa (NR concentration 270 nM, RXRa partner concentration 90 nM)).
Result: 5.51

Problem: Give measured PBM binding z-score for ACTAGCAGGTCAAGGGTCACTCAAGATTAGTCCG (PPARa:RXRa (NR concentration 270 nM, RXRa partner concentration 90 nM)).
Result: 6.3

Problem: Give measured PBM binding z-score for AGTCAAAGTTCACTAGGCAACGTAAGATTCAGCT (PPARa:RXRa (NR concentration 270 nM, RXRa partner concentration 90 nM)).
Result: 4.5

Problem: Give measured PBM binding z-score for ACTAGTTGTTCAGCTGAGGTCACACACAATTCGG (PPARa:RXRa (NR concentration 270 nM, RXRa partner concentration 90 nM)).
Result: 3.83

Problem: Give measured PBM binding z-score for TGAATGAAGTTAAAGATCAGGGAACGTGGCGTCG (PPARa:RXRa (NR concentration 270 nM, RXRa partner concentration 90 nM)).
Result: 0.212

Problem: Give measured PBM binding z-score for CAAAGTAGGTCACCGGAAGGTCAAAGTCCGCATG (PPARa:RXRa (NR concentration 270 nM, RXRa partner concentration 90 nM)).
Result: 6.43

Problem: Give measured PBM binding z-score for GCTCGGGGGACAAGGTCAGAGCTTTGTCCGTAGA (PPARa:RXRa (NR concentration 270 nM, RXRa partner concentration 90 nM)).
Result: 4.25

Problem: Give measured PBM binding z-score for ATATGTAGGTTAGGGTCATTCCGAAAGTAGGGAA (PPARa:RXRa (NR concentration 270 nM, RXRa partner concentration 90 nM)).
Result: 5.69

Problem: Give measured PBM binding z-score for CCTAGTTGGGCAGGAGGTCACACACCGGATATGA (PPARa:RXRa (NR concentration 270 nM, RXRa partner concentration 90 nM)).
Result: 3.7

Problem: Give measured PBM binding z-score for CCTACTGGGCCAAAGGTCCTTGATTCCAATGCTC (PPARa:RXRa (NR concentration 270 nM, RXRa partner concentration 90 nM)).
Result: 3.84

Problem: Give measured PBM binding z-score for CAAACTAGGTCACGAAAGGTCAAAGCCGAATGAC (PPARa:RXRa (NR concentration 270 nM, RXRa partner concentration 90 nM)).
Result: 6.89

* * *

Test system: RARg homodimer (NR concentration 270 nM)
Assay: PBM binding z-score (relative to random genomic background probes); higher = stronger binding; sequences stand for … in GC…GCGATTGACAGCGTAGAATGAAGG
Provide the recorded PBM binding z-score for the entries that follow.
Keep it simple and answer with nothing but the number.

Problem: Give PBM binding z-score for the following sequence: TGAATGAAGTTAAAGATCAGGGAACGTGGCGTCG
Result: 0.00438

Problem: Give PBM binding z-score for the following sequence: CGTCCAAGGTCAGCAGGTCAGAGAAAGCGACGTG
Result: 6.67

Problem: Give PBM binding z-score for the following sequence: ATCGAAAGGTCGACGAGTTGAGTATACACCGTTT
Result: 4.05
